Below, each of the binders is paired with its reported EC50 Rat APJ Receptor value.
# ASSAY TARGET: T1, rat APJ receptor (rat, UniProt Q9JHG3 1-377)
# T1 sequence (looked up): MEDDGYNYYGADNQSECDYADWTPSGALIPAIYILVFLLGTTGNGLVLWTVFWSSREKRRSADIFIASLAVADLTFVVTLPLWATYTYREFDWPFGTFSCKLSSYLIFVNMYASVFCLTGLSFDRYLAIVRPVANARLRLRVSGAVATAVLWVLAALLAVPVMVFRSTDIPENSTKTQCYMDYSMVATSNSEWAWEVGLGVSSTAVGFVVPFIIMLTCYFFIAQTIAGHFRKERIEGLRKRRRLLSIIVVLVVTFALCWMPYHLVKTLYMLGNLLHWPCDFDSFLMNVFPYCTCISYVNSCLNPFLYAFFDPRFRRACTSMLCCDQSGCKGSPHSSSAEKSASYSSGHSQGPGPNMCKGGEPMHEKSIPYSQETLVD
# PROTOCOL TEXT: cell-based or functional assay
Non-standard residues stand in square brackets, D forms with d. No end group written: not given here. BhLeu = source's own code, no definition; Oic = O=C(O)[C@@H]1C[C@@H]2CCCC[C@@H]2N1; Phe(4-Cl) = N[C@@H](Cc1ccc(Cl)cc1)C(=O)O; d1Nal = N[C@H](Cc1cccc2ccccc12)C(=O)O; NMeR = CN[C@@H](CCCNC(=N)N)C(=O)O; hArg = N=C(N)NCCCC[C@H](N)C(=O)O; Cha = N[C@@H](CC1CCCCC1)C(=O)O; code O = not defined here; Nle = CCCC[C@H](N)C(=O)O; Orn = NCCC[C@H](N)C(=O)O; βAla = NCCC(=O)O

# BINDER, EC50 Rat APJ Receptor [nM]
records = [
    ("[Orn]F[hArg][hArg]Q[hArg]P[hArg][Cha]S[βAla]KG[Oic][Nle]P[Phe(4-Cl)] [apelin polypeptide SEQ ID NO: 700]", 3.11),
    ("Ac-[hArg]Q[dR]P[NMeR][Cha]SHKG[Oic][Nle][d1Nal]-OH (SMILES CCCC[C@H](NC(=O)[C@@H]1C[C@@H]2CCCC[C@@H]2N1C(=O)CNC(=O)[C@H](CCCCN)NC(=O)[C@H](Cc1c[nH]cn1)NC(=O)[C@H](CO)NC(=O)[C@H](CC1CCCCC1)NC(=O)[C@H](CCCNC(=N)N)N(C)C(=O)[C@@H]1CCCN1C(=O)[C@@H](CCCNC(=N)N)NC(=O)[C@H](CCC(N)=O)NC(=O)[C@H](CCCCNC(=N)N)NC(C)=O)C(=O)N[C@H](Cc1cccc2ccccc12)C(=O)O) [apelin polypeptide SEQ ID NO: 25]", 53.7),
    ("[code O]F[hArg][hArg][BhLeu][hArg]P[hArg][Cha]SHKG[Oic][Nle]P[Phe(4-Cl)] (reading uncertain; also: printed as OF[hArg][hArg][BhLeu][hArg]P[hArg][Cha]SHKG[Oic][Nle]P[4-Cl-F]) [apelin polypeptide SEQ ID NO: 692]", 0.503),
]
